All figures here come from patent US20090227600A1.

molecular target: HCV RNA Polymerase, recombinant full-length NS5B, genotype 1b (Hepatitis C virus genotype 1b, UniProt Q9WMX2); construct: Recombinant full-length NS5B; test: In vitro HCV RNA-dependent RNA polymerase inhibition assay, genotype 1b full-length enzyme; details: genotype 1b full-length NS5B enzyme
Sequence (Q9WMX2 2420-3010): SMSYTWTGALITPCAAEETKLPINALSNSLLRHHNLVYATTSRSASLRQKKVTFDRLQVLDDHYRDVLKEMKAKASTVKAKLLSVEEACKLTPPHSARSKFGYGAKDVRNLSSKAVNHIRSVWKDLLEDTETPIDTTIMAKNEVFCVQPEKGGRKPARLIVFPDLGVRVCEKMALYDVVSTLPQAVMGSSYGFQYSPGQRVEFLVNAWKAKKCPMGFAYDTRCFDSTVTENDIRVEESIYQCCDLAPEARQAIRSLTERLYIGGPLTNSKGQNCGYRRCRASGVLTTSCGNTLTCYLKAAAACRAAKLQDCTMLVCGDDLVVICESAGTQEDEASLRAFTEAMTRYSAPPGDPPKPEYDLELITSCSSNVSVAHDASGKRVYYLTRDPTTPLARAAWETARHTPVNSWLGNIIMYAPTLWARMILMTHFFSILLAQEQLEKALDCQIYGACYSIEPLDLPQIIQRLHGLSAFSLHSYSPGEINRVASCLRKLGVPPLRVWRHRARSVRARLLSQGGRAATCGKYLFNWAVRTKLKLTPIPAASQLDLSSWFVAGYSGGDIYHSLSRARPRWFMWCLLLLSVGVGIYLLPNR
pIC50: −log10 of the molar value.

Compound	pIC50
COc1cc(C(=O)N2[C@@H](c3cncs3)[C@@H](c3cnccn3)C[C@@]2(CCSC)C(=O)O)ccc1C(C)(C)C (racemic) [Compound E, reference compound]	6.30 to 7.00
COc1cc(C(=O)N2[C@@H](c3nccs3)[C@@H](c3cnccn3)C[C@@]2(Cc2nccs2)C(=O)O)ccc1C(C)(C)C (single isomer, unassigned; enantiomer a) [Example 4]	> 7.00
COc1cc(C(=O)N2[C@@H](c3ncc(C)s3)[C@@H](c3cnccn3)C[C@@]2(Cc2ccsn2)C(=O)O)ccc1C(C)(C)C (racemic) [Example 5]	> 7.00

====

System: Huh-7 HCV replicon cells (genotype 1a)
Experiment: Replicon ELISA cell based assay, genotype 1a
Parameters: species or system HCV genotype 1a
Conditions: Hepatitis C virus, Huh-7 genotype 1a replicon, 72 hours
Procedure: 100 μL of medium containing 10% FCS were added to each well of clear, flat-bottomed 96 well microplates, excepting wells in the top row. Test compound was diluted in assay medium to twice the final required starting concentration from a 40 mM stock solution in DMSO. […] Following incubation, the assay medium was aspirated from the plates. […] The reaction was stopped by the addition of 25 μL per well of 2 M sulphuric acid and the plates were read at 490 nm on a Fluostar Optima spectrophotometer. […]

Compound	IC50
COc1cc(C(=O)N2[C@@H](c3nccs3)[C@@H](c3cnccn3)C[C@@]2(Cc2nccs2)C(=O)O)ccc1C(C)(C)C (racemic) [Example 3]	< 10 µM
COc1cc(C(=O)N2[C@@H](c3nccs3)[C@@H](c3cnccn3)C[C@@]2(CC(C)C)C(=O)O)ccc1C(C)(C)C (single isomer, unassigned; enantiomer a) [Compound B, reference compound]	10 to 100 µM
COc1cc(C(=O)N2[C@@H](c3cncs3)[C@@H](c3cnccn3)C[C@@]2(CCSC)C(=O)O)ccc1C(C)(C)C (racemic) [Compound E, reference compound]	10 to 100 µM
COc1cc(C(=O)N2[C@@H](c3nccs3)[C@@H](c3cnccn3)C[C@@]2(Cc2cscn2)C(=O)O)ccc1C(C)(C)C (racemic) [Example 1]	< 10 µM
COc1cc(C(=O)N2[C@@H](c3nccs3)[C@@H](c3cnccn3)C[C@@]2(Cc2nccs2)C(=O)O)ccc1C(C)(C)C (single isomer, unassigned; enantiomer a) [Example 4]	< 10 µM
COc1cc(C(=O)N2[C@@H](c3nccs3)[C@@H](c3cnccn3)C[C@@]2(Cc2cscn2)C(=O)O)ccc1C(C)(C)C (single isomer, unassigned; enantiomer a) [Example 2]	< 10 µM
COc1cc(C(=O)N2[C@@H](c3nccs3)[C@@H](c3cnccn3)C[C@@]2(CCS(C)(=O)=O)C(=O)O)ccc1C(C)(C)C (racemic) [Compound F, reference compound]	> 100 µM
COc1cc(C(=O)N2[C@@H](c3ncc(C)s3)[C@@H](c3cnccn3)C[C@@]2(Cc2ccsn2)C(=O)O)ccc1C(C)(C)C (single isomer, unassigned; enantiomer a) [Example 6]	< 10 µM
COc1cc(C(=O)N2[C@@H](c3nccs3)[C@@H](c3cnccn3)C[C@@]2(Cc2c[nH]cn2)C(=O)O)ccc1C(C)(C)C (racemic) [Compound D, reference compound]	> 100 µM
COc1cc(C(=O)N2[C@@H](c3nccs3)[C@@H](c3cnccn3)C[C@@]2(Cc2ccccc2)C(=O)O)ccc1C(C)(C)C (racemic) [Compound G, reference compound]	10 to 100 µM

====

molecular target: HCV RNA Polymerase, recombinant full-length NS5B, genotype 1b (Hepatitis C virus genotype 1b); construct: Recombinant full-length NS5B; assay: In vitro HCV RNA-dependent RNA polymerase inhibition assay, genotype 1b full-length enzyme; conditions: genotype 1b full-length NS5B enzyme
This listing pairs compounds with measured IC50.
Readout Kind: IC50

Compound	Readout Kind	Result
COc1cc(C(=O)N2[C@@H](c3nccs3)[C@@H](c3cnccn3)C[C@@]2(CC(C)C)C(=O)O)ccc1C(C)(C)C (single isomer, unassigned; enantiomer a) [Compound B, reference compound]	IC50	> 500 nM
COc1cc(C(=O)N2[C@@H](c3nccs3)[C@@H](c3cnccn3)C[C@@]2(Cc2ccsn2)C(=O)O)ccc1C(C)(C)C (single isomer, unassigned; enantiomer a) [Example 8]	IC50	< 100 nM
COc1cc(C(=O)N2[C@@H](c3nccs3)[C@@H](c3cnccn3)C[C@@]2(Cc2ccsn2)C(=O)O)ccc1C(C)(C)C (racemic) [Example 7]	IC50	< 100 nM
COc1cc(C(=O)N2[C@@H](c3ncc(C)s3)[C@@H](c3cnccn3)C[C@@]2(Cc2nccs2)C(=O)O)ccc1C(C)(C)C (single isomer, unassigned; enantiomer a) [Example 14]	IC50	< 100 nM
COc1cc(C(=O)N2[C@@H](c3ncc(C)s3)[C@@H](c3cnccn3)C[C@@]2(Cc2cscn2)C(=O)O)ccc1C(C)(C)C (single isomer, unassigned; enantiomer a) [Example 16]	IC50	< 100 nM
COc1cc(C(=O)N2[C@@H](c3nccs3)[C@@H](c3cnccn3)C[C@@]2(Cc2cscn2)C(=O)O)ccc1C(C)(C)C (racemic) [Example 1]	IC50	< 100 nM
COc1cc(C(=O)N2[C@@H](c3nccs3)[C@@H](c3cnccn3)C[C@@]2(CC(C)C)C(=O)O)ccc1C(C)(C)C (racemic) [Compound A, reference compound]	IC50	100 to 500 nM
COc1cc(C(=O)N2[C@@H](c3ncc(C)s3)[C@@H](c3cnccn3)C[C@@]2(Cc2ccsn2)C(=O)O)ccc1C(C)(C)C (single isomer, unassigned; enantiomer a) [Example 6]	IC50	< 100 nM
COc1cc(C(=O)N2[C@@H](c3ncc(C)s3)[C@@H](c3cnccn3)C[C@@]2(Cn2cccn2)C(=O)O)ccc1C(C)(C)C (racemic) [Example 9]	IC50	< 100 nM
COc1cc(C(=O)N2[C@@H](c3nccs3)[C@@H](c3cnccn3)C[C@@]2(CCS(C)(=O)=O)C(=O)O)ccc1C(C)(C)C (racemic) [Compound F, reference compound]	IC50	> 500 nM

====

biological target: HCV RNA Polymerase, recombinant NS5B with C-terminal 21 amino acid deletion, genotype 1a strain H77 (Hepatitis C virus genotype 1a, UniProt P27958); construct: fused on or other part: C-terminal 6His-tag; assay: In vitro HCV RNA-dependent RNA polymerase inhibition assay, genotype 1a C-terminally truncated (delta21) enzyme; settings: genotype 1a delta21 NS5B enzyme; read-out: IC50 in delta-21 1a enzyme inhibition assay
Sequence (P27958 2421-3011 V2599I, form open): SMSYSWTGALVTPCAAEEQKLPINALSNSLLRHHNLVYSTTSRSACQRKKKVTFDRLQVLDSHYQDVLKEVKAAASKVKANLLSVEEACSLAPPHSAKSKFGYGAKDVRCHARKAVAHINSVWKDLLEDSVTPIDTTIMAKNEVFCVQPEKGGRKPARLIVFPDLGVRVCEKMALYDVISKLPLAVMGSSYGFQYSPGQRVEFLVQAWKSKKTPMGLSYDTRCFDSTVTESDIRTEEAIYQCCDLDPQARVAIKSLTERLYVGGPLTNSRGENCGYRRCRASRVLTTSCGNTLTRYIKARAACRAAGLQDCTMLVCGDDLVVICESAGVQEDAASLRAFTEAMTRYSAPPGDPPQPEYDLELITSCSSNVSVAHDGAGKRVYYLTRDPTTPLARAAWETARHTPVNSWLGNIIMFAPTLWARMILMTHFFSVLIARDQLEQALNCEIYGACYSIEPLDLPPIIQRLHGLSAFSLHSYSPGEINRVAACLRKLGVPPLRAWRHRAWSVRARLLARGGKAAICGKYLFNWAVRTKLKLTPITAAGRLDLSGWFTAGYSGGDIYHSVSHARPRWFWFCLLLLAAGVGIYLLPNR
pIC50: −log10 of the molar value.

Molecule	pIC50
COc1cc(C(=O)N2[C@@H](c3nccs3)[C@@H](c3cnccn3)C[C@@]2(Cc2ccsn2)C(=O)O)ccc1C(C)(C)C (single isomer, unassigned; enantiomer a) [Example 8]	> 6.82
COc1cc(C(=O)N2[C@@H](c3nccs3)[C@@H](c3cnccn3)C[C@@]2(CC(C)C)C(=O)O)ccc1C(C)(C)C (racemic) [Compound A, reference compound]	< 6.00
COc1cc(C(=O)N2[C@@H](c3nccs3)[C@@H](c3cnccn3)C[C@@]2(Cc2nccs2)C(=O)O)ccc1C(C)(C)C (single isomer, unassigned; enantiomer a) [Example 4]	> 6.82
COc1cc(C(=O)N2[C@@H](c3nccs3)[C@@H](c3cnccn3)C[C@@]2(Cc2c[nH]cn2)C(=O)O)ccc1C(C)(C)C (racemic) [Compound D, reference compound]	< 6.00
COc1cc(C(=O)N2[C@@H](c3nccs3)[C@@H](c3cnccn3)C[C@@]2(Cc2ccccc2)C(=O)O)ccc1C(C)(C)C (racemic) [Compound G, reference compound]	< 6.00

====

test system: Huh-7 HCV replicon cells (genotype 1a); assay: Replicon ELISA cell based assay, genotype 1a; parameters: species or system HCV genotype 1a; conditions: Hepatitis C virus, Huh-7 genotype 1a replicon, 72 hours

Molecule	IC50
COc1cc(C(=O)N2[C@@H](c3nccs3)[C@@H](c3cnccn3)C[C@@]2(Cn2cccn2)C(=O)O)ccc1C(C)(C)C (racemic) [Example 11]	< 10 µM
COc1cc(C(=O)N2[C@@H](c3ncc(C)s3)[C@@H](c3cnccn3)C[C@@]2(Cn2cccn2)C(=O)O)ccc1C(C)(C)C (racemic) [Example 9]	< 10 µM
COc1cc(C(=O)N2[C@@H](c3nccs3)[C@@H](c3cnccn3)C[C@@]2(Cc2ccccn2)C(=O)O)ccc1C(C)(C)C (racemic) [Compound C, reference compound]	10 to 100 µM
COc1cc(C(=O)N2[C@@H](c3nccs3)[C@@H](c3cnccn3)C[C@@]2(Cn2cccn2)C(=O)O)ccc1C(C)(C)C (single isomer, unassigned; enantiomer a) [Example 12]	< 10 µM

====

IC50 for assorted molecules
test system: Huh-7 HCV replicon cells (genotype 1a); experiment: Replicon ELISA cell based assay, genotype 1a; design: species or system HCV genotype 1a; conditions: Hepatitis C virus, Huh-7 genotype 1a replicon, 72 hours

Molecule	IC50
COc1cc(C(=O)N2[C@@H](c3ncc(C)s3)[C@@H](c3cnccn3)C[C@@]2(Cc2cscn2)C(=O)O)ccc1C(C)(C)C (single isomer, unassigned; enantiomer a) [Example 16]	< 10 µM
COc1cc(C(=O)N2[C@@H](c3ncc(C)s3)[C@@H](c3cnccn3)C[C@@]2(Cc2ccsn2)C(=O)O)ccc1C(C)(C)C (racemic) [Example 5]	< 10 µM
COc1cc(C(=O)N2[C@@H](c3nccs3)[C@@H](c3cnccn3)C[C@@]2(CC(C)C)C(=O)O)ccc1C(C)(C)C (racemic) [Compound A, reference compound]	10 to 100 µM
